System: PC-3 prostate
Test: NCI tumour cell line growth inhibition, 48 h; in the data active = GI50 below about 0.43 µM; inactive = the rest
Use one of these outcomes when replying: active, inactive

INPUT: Recorded call for CCCC(=O)O.CCCC(=O)O.CCCC(=O)O.CCCC(=O)O.[Rh].[Rh] ?
OUTPUT: active

INPUT: Per the assay record, what outcome was assigned to Nc1c(C(=O)c2ccc(CCCN3CCOCC3)cc2)cnn1-c1ccc(F)cc1 ?
OUTPUT: inactive

INPUT: Outcome? COc1cccc2c1c(C1=C(c3cn(C)c4ccccc34)C(=O)NC1=O)cn2C
OUTPUT: inactive

====

Tested on: DU-145 prostate
Assay: NCI tumour cell line growth inhibition, 48 h; in the data active = GI50 below about 0.43 µM; inactive = the rest
Outcome (select one): 1.0 = active, 0.0 = inactive

INPUT: Per the assay record, what outcome was assigned to O=C(NO)c1ccc(Cn2c(=O)n(-c3ccccc3F)c(=O)c3ccccc32)cc1 ?
OUTPUT: 0.0

INPUT: Could you kindly confirm the outcome this assay logged for O=S(=O)(Nc1cc(Cl)ccc1Cl)c1ccc(-c2cnc(C3CC3)o2)cc1 ?
OUTPUT: 0.0

INPUT: Recorded test outcome, item CC/C(=C(/c1ccc(O)cc1)c1ccc(OCCN2CCCCC2)cc1)c1ccc(OC)cc1
OUTPUT: 0.0

INPUT: Can you look up the reported call for Cc1cc(O)cc(C)c1/C=C/c1cncc(-c2nn[nH]n2)c1 for me?
OUTPUT: 0.0

INPUT: I'd appreciate the recorded outcome for C=C1C(=O)O[C@@H]2C1C[C@@H](O)C(=C)CC/C=C(\C)CCC[C@H](C)[C@H]2OC(C)=O (some centres undefined) from this test.
OUTPUT: 0.0

INPUT: Hi team, can someone confirm the assay call for NC1=NCCN1CC(=O)O ?
OUTPUT: 0.0

INPUT: What was the test verdict on COc1cc(O)c2c(c1)C(=O)c1cc3c(c(O)c1C2=O)C(OC1OC(C)C(O)C(O)C1OC)C(OC)C(C)(O)C3=O (centres undefined) ?
OUTPUT: 0.0

INPUT: Lab log entry: CCCC(=O)O.CCCC(=O)O.CCCC(=O)O.CCCC(=O)O.[Rh].[Rh] — outcome as called in the assay?
OUTPUT: 1.0

INPUT: # fetch the recorded call for CN(C)CCCNC(=O)c1cncnc1Nc1ccc(OCc2cccc(F)c2)c(Cl)c1 here
OUTPUT: 0.0

====

Tested on: RPMI-8226 leukemia
Assay: NCI tumour cell line growth inhibition, 48 h
endpoint: TGI

INPUT: Which TGI is reported for this compound? Cc1cc(C)nc(SCCc2cccc[n+]2C)n1
OUTPUT: > 100 µM

INPUT: Need TGI, item Nc1c(C(=O)c2ccc(CCCN3CCOCC3)cc2)cnn1-c1ccc(F)cc1
OUTPUT: > 25 µM

INPUT: Quick check: TGI of C=C1C(=O)O[C@@H]2C1C[C@@H](O)C(=C)CC/C=C(\C)CCC[C@H](C)[C@H]2OC(C)=O (stereo partly specified) ?
OUTPUT: 6.61 µM

INPUT: State the recorded TGI for this entry: CC(=O)OCCOc1cc2c([nH]c3ccccc32)c(C)c2cccc1-2
OUTPUT: > 26.4 µM

INPUT: # input compound: CC(=N\N=C\c1ccccn1)/C(C)=N/N=C(C)/C(C)=N/N=C/c1ccccn1 ; wanted: its TGI
OUTPUT: > 100 µM

INPUT: So what does the record say about TGI for COC(=O)/C=C(\S/C(=N\n1cc(C(=O)OC)c(C(=O)OC)c1-c1ccc(C)cc1)c1ccc(C)cc1)C(=O)OC ?
OUTPUT: 20.1 µM

====

Tested on: SW-620 colon
Assay: NCI tumour cell line growth inhibition, 48 h
Assignment: determine reported TGI for the given compounds.

INPUT: Query: TGI; subject: CCOC(=O)[C@@H](C)C[C@H](Cc1ccccc1)NC(=O)c1csc([C@@H](C[C@H](C(C)C)N(C)C(=O)[C@H](CC)NC(=O)[C@H]2CCCCN2C)OC(C)=O)n1
OUTPUT: > 16.7 µM

INPUT: Name the reported TGI value associated with the compound N#CC1=C(N)NC(=S)NC12Nc1ccccc1N2
OUTPUT: > 100 µM

INPUT: // TGI lookup, key: NC1=NCCN1CC(=O)O
OUTPUT: > 10000 µM

INPUT: Name the recorded TGI for CC[C@@H]1C[C@H]2CC3c4[nH]c5ccc(O)cc5c4CCN(C2)C31 .
OUTPUT: > 100 µM

INPUT: Request the reported TGI associated with COc1ccc(OC)c(CC(C)N)c1 (configuration not stated)
OUTPUT: > 100 µM

INPUT: Item under review: Cn1/c(=N\N=C(\CNCCO)[C@@H](O)[C@@H]2OC(c3ccccc3)OC[C@H]2O)sc2ccccc21 (some centres not stated) . Reported TGI?
OUTPUT: 37.5 µM

INPUT: Which TGI is listed for CC(=O)O[C@H]1CCC2[C@@H]3CCC4Cc5nc6c(nc5C[C@]4(C)C3CC[C@@]21C)CC1CC[C@@H]2C(CC[C@@]3(C)C2CC[C@@H]3C(C)CCCC(C)C)[C@@]1(C)C6 (some centres not stated) ?
OUTPUT: > 100 µM

INPUT: So what does the record say about TGI for COc1cc(N(Cc2ccc3nc(OC)c(OC)nc3c2)Cc2ccc3nc(OC)c(OC)nc3c2)cc(OC)c1OC ?
OUTPUT: > 50 µM

INPUT: Form field: reported TGI of CCOc1ccc(NC(=O)C2=C(C)NC(C)=C(C(=O)Nc3ccc(OCC)cc3)C2c2ccccc2)cc1
OUTPUT: > 100 µM

INPUT: # lookup: TGI of COc1ccc(CNc2nc3cc(N)cc(N)c3nc2-c2ccccc2)cc1
OUTPUT: 30 µM

INPUT: Fill blank: measured TGI of the compound O=c1c2cc([N+](=O)[O-])ccc2nc2n1CCCCC2 is ____.
OUTPUT: > 100 µM

INPUT: // lookup TGI for CC(C)(C)OC(=O)NC1CCC(C(C)(C)C)CC1 (configuration not stated)
OUTPUT: > 100 µM

INPUT: TGI for CCS(=O)(=O)Nc1cccc(Nc2c3cccc(C)c3nc3c(C)cccc23)c1OC ?
OUTPUT: > 100 µM

INPUT: State the recorded TGI for this entry: O=C(/C(=C/c1ccc([N+](=O)[O-])cc1)SCc1ccc(F)cc1)c1ccc(Cl)cc1
OUTPUT: 4.78 µM

INPUT: Item under review: C[C@H]1[C@H]2[C@H]3CC[C@@H]4[C@@]5(C)C/C(=C/c6cccnc6)C(=O)C(C)(C)[C@@H]5CC[C@@]4(C)[C@]3(C)CC[C@]23CO[C@]1(C)[C@@H](C(=O)/C=C\c1cccnc1)C3 . Reported TGI?
OUTPUT: 2.51 µM

INPUT: I have this compound here, O=C(NCc1ccco1)c1ccc(NC2=C(Cl)C(=O)N(Cc3ccccc3)C2=O)cc1 , and I need its recorded TGI.
OUTPUT: > 100 µM

INPUT: // query TGI value for entry CNC(=O)Oc1cc(C)c(/C=C/c2cncc(C(=O)NC)c2)c(C)c1
OUTPUT: > 25 µM

INPUT: Suppose we examine the compound [O-][n+]1onc2c1/C(=N/O)CCC2 ; what TGI value has been reported?
OUTPUT: > 100 µM

INPUT: Consider the compound O=S(=O)(Nc1cc(Cl)ccc1Cl)c1ccc(-c2cnc(C3CC3)o2)cc1 and give its measured TGI.
OUTPUT: > 100 µM

INPUT: Dear colleague, I am looking for the recorded TGI of the following compound: CC(O)C1(CNc2cc(Cl)nc(N)n2)CC(CCc2ccccc2)C1 (configuration not stated)
OUTPUT: 29.3 µM

INPUT: Given the compound SC1CCCN(Cc2ccccc2)C1 (configuration not stated) , what is its reported TGI?
OUTPUT: 72.6 µM

INPUT: Can you look up the measured TGI of O=c1[nH]cnc2c1CCCN2 for me?
OUTPUT: > 100 µM

====

Test system: OVCAR-8 ovarian
Test: NCI tumour cell line growth inhibition, 48 h; in the data active = GI50 below about 0.43 µM; inactive = the rest
Lab note: assign the record to one of yes (1) = active, no (0) = inactive

INPUT: Assay result, entry CCCCCCc1nc2nc(Cl)c(Cl)nc2[nH]1 — outcome?
OUTPUT: no (0)

INPUT: How did this test come out for C/C(=C\COc1c2c(cc3c1CCO3)OC1(C=C2)OC(CC/C(C)=C/COc2c3ccoc3cc3oc(=O)ccc23)C(C)(C)O1)CCC(O)C(C)(C)O (configuration not stated) ?
OUTPUT: no (0)

INPUT: What is the recorded call for this molecule in the test? COc1cccc2c1c(C1=C(c3cn(C)c4ccccc34)C(=O)NC1=O)cn2C
OUTPUT: no (0)

INPUT: Could you check what this test reported for C=C1C(=O)O[C@@H]2C1C[C@@H](O)C(=C)CC/C=C(\C)CCC[C@H](C)[C@H]2OC(C)=O (some centres not stated) ?
OUTPUT: no (0)

INPUT: Recorded call for C[n+]1ccc(-c2c3nc(c(-c4cc[n+](C)cc4)c4ccc([n-]4)c(-c4cc[n+](C)cc4)c4nc(c(-c5cc[n+](C)cc5)c5ccc2[n-]5)C=C4)C=C3)cc1.[I-].[Zn+2] ?
OUTPUT: no (0)

INPUT: # lookup: test call for COC(=O)/C=C/c1cn(C(C)=O)c2ccc(Br)cc12
OUTPUT: no (0)

INPUT: Which outcome was assigned to CCCCN(CCCC)CCCn1c(=O)c2c3ccccc3n(C)c2n2nnc(-c3ccccc3)c12 in this test?
OUTPUT: no (0)

INPUT: # lookup: test call for O=C(CCC(C(=O)c1ccccc1)c1ccccc1)c1ccccc1 (configuration not stated)
OUTPUT: no (0)

INPUT: Tell me the assay call for CCS(=O)(=O)Nc1cccc(Nc2c3cccc(C)c3nc3c(C)cccc23)c1OC please.
OUTPUT: no (0)

INPUT: // outcome(item) with item = CC[C@@]1(O)C(=O)OCc2c1cc1n(c2=O)Cc2c-1nc1cc3c(cc1c2C)OCO3
OUTPUT: yes (1)

INPUT: Hi, sorry to bother you, what did the test record for COc1ccc(CNc2nc3cc(N)cc(N)c3nc2-c2ccccc2)cc1 ?
OUTPUT: no (0)

INPUT: Called result for COC(=O)[C@H](Cc1ccc(O)cc1)NC(=O)[C@@H](OC)[C@@H]1Cc2cc3cc(OC4CC(OC5CC(O)C(O)C(C)O5)C(O)C(C)O4)c(C)c(O)c3c(O)c2C(=O)[C@H]1OC1CC(OC2CC(OC3CC(C)(O)C(O)C(C)O3)C(O)C(C)O2)C(O)C(C)O1 (some centres not stated)
OUTPUT: yes (1)

INPUT: Please indicate how the test categorized c1ccc(CN=C(NCc2ccccc2)NCc2ccccc2)cc1 .
OUTPUT: no (0)

INPUT: // outcome(item) with item = CCOC(=O)/C(=C(/C)NCC(C)C)c1cc(O)c(O)c2c(C)cc(=O)[nH]c12
OUTPUT: no (0)

INPUT: Tell me the assay call for OCC1OC(n2cnc3c(Cl)nc(Cl)cc32)C(O)C1O (configuration not stated) please.
OUTPUT: no (0)

INPUT: Just curious, what result did O=C(NO)c1ccc(Cn2c(=O)n(-c3ccccc3F)c(=O)c3ccccc32)cc1 get here?
OUTPUT: no (0)

INPUT: Test call for this molecule, please: CN(C)CCOC(c1ccccc1)c1ccccc1
OUTPUT: no (0)
